- tested on: MLKL (Homo sapiens, UniProt Q8NB16)
- Sequence (Q8NB16 whole entry): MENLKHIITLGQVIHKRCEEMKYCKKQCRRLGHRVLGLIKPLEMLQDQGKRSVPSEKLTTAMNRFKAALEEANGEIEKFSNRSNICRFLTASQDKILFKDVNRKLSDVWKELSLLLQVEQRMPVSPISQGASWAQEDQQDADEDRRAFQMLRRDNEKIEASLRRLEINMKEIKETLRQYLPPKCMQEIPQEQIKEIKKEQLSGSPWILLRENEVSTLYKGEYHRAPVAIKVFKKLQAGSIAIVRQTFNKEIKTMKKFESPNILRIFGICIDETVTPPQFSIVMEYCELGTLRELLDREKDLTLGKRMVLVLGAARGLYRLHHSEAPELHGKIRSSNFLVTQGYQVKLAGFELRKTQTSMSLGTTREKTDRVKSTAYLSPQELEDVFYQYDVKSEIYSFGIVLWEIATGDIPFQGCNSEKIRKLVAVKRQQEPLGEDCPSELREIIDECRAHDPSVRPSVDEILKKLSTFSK
- assay comment: MLKL degradation assay in HepG2 cell line (western blot)
- Format: cell-based
- Design: endogenous in cells; host or cells: HepG2 or HaCaT
- condition: compound 10 μM; cell line not given
- Procedure: MLKL degradation ability was evaluated in the following method. […] For protein preparation after incubation, cells were washed with 1×TBST, and 60 μL of RIPA lysis buffer containing Halt™ Protease and Phosphatase Inhibitor Cocktail was dispensed into each well. […] For protein quantification, after dispensing sample and BCA (0-4 mg/ml) in a 96 well plate, 100 μL of BCA was dispensed and reacted in a 37° C. incubator for 30 minutes. […]
experimental endpoint: Degradation assay (Degradation %) 10 μM
Give bare numbers, in %.

Prompt line: Input Nc1ncc(-c2cnn(C3CCN(C4CC5(CCN(CC6CCN(C(=O)COc7ccc8c(c7)C(=O)N(C7CCC(=O)NC7=O)C8=O)CC6)CC5)C4)CC3)c2)nc1C(=O)O[C@@H](C(=O)Nc1ccc(F)cc1)c1ccccc1 (some centres unmarked) , output reported Degradation assay (Degradation %) 10 μM.
Response line: 87.27

Prompt line: Input Nc1ncc(-c2cnn(C3CCN(CCOC4CCN(C(=O)COc5cccc6c5C(=O)N(C5CCC(=O)NC5=O)C6=O)CC4)CC3)c2)nc1C(=O)O[C@@H](C(=O)Nc1ccc(F)cc1)c1ccccc1 (some centres unmarked) , output reported Degradation assay (Degradation %) 10 μM.
Response line: 60.37

Prompt line: Input Nc1ncc(-c2cnn(C3CCN(C(=O)C4CCN(C(=O)C5CCN(c6ccc7c(c6)C(=O)N(C6CCC(=O)NC6=O)C7=O)CC5)CC4)CC3)c2)nc1C(=O)OC(C(=O)Nc1ccc(F)cc1)c1ccccc1 (centres unmarked) , output reported Degradation assay (Degradation %) 10 μM.
Response line: 38.77

Prompt line: Input Nc1ncc(-c2cnn(C3CCN(CCC4CCN(c5cccc6c5C(=O)N(C5CCC(=O)NC5=O)C6=O)CC4)CC3)c2)nc1C(=O)O[C@@H](C(=O)Nc1ccc(F)cc1)c1ccccc1 (some centres unmarked) , output reported Degradation assay (Degradation %) 10 μM.
Response line: 53.78

With those in mind, consider the next compound.
Prompt line: Input Nc1ncc(-c2cnn(C3CCN(CCCN4CC5CN(C(=O)CNc6ccc7c(c6)C(=O)N(C6CCC(=O)NC6=O)C7=O)CC5C4)CC3)c2)nc1C(=O)O[C@@H](C(=O)Nc1ccc(F)cc1)c1ccccc1 (some centres unmarked) , output reported Degradation assay (Degradation %) 10 μM.
Response line: 86.45
